Target: HLA-A*02:03
Assay: IEDB peptide-MHC binding, purified MHC/competitive/radioactivity; bounds were set here for any values at or beyond the usual limits of such assays
Conditions: source organism: Vaccinia virus WR
Recorded pIC50 by entry
The scale used: pIC50 is minus the common logarithm of the concentration in molar units.

Answered cases to consult:
{"seq": "NLFDIPLLTV", "pIC50": 9.60}
{"seq": "FLTSVINRV", "pIC50": 8.85}
{"seq": "GLNDYLHSV", "pIC50": 8.85}
{"seq": "ILDDNLYKV", "pIC50": 7.21}

GET /values?readout=pIC50&item= FLNISWFYI
9.48

---

Target: HLA-A*11:01
Assay: IEDB peptide-MHC binding, purified MHC/competitive/radioactivity; filed as Kd, often an IC50 or EC50 that approximates it; bounds were set here for any values at or beyond the usual limits of such assays
Conditions: source organism: Vaccinia virus WR
observation-type: Kd (nM)
Numeric answer only, unit nM assumed.

GET /values?readout=Kd&item= AVKDVTITKK
519

---

Biological target: HLA-A*29:02
Test: IEDB peptide-MHC binding, purified MHC/competitive/radioactivity; filed as Kd, often an IC50 or EC50 that approximates it; bounds were set here for any values at or beyond the usual limits of such assays
Settings: source organism: Vaccinia virus WR
observation-type: pKd
The scale used: pKd is minus the common logarithm of the concentration in molar units.

{"seq": "VSVNNVCHMY", "pKd": 5.97}
{"seq": "FGDSKEPVPY", "pKd": 6.25}
{"seq": "RYRFAFLYLL", "pKd": 4.79}

GET /values?readout=pKd&item= SQSDTVFDY
6.07

---

Recorded IC50 by entry
Molecular target: HLA-A*30:02
Experiment: IEDB peptide-MHC binding, purified MHC/competitive/radioactivity; bounds were set here for any values at or beyond the usual limits of such assays
Settings: source organism: Vaccinia virus WR
Numeric answer only, unit nM assumed.

Answered cases to consult:
{"seq": "QSITRSLIY", "observation-type": "IC50", "measured-value": 291}
{"seq": "SQSDTVFDY", "observation-type": "IC50", "measured-value": 2.3}

Kindly state the measured IC50 obtained for VTDTNKFDNY with HLA-A*30:02.
256

// repeat for DMCDIYLLY and report
55

// repeat for VSVNNVCHMY and report
3.7

// repeat for FLSMLNLTKY and report
500

---

Target: HLA-A*23:01
Experiment: IEDB peptide-MHC binding, purified MHC/competitive/radioactivity; bounds were set here for any values at or beyond the usual limits of such assays
Conditions: source organism: Vaccinia virus WR
Recorded pIC50 by entry
The scale used: pIC50 is minus the common logarithm of the concentration in molar units.

GET /values?readout=pIC50&item= RYRFAFLYLL
7.39

// repeat for VWINNSWKF and report
8.28

---

Recorded Kd by entry
Target: HLA-A*31:01
Experiment: IEDB peptide-MHC binding, purified MHC/competitive/radioactivity; filed as Kd, often an IC50 or EC50 that approximates it; bounds were set here for any values at or beyond the usual limits of such assays
Conditions: source organism: Vaccinia virus WR
Numeric answer only, unit µM assumed.

Answered cases to consult:
{"seq": "AVFKDSFLRK", "Kd (µM)": 0.686}
{"seq": "GTIAGGVCYY", "Kd (µM)": 8.45}

GET /values?readout=Kd&item= AVKDVTITKK
0.605

// repeat for ATSLDVINY and report
10.3

// repeat for VTSSGAIYK and report
3.97

---

Target: HLA-B*44:03
Experiment: IEDB peptide-MHC binding, purified MHC/competitive/radioactivity; filed as Kd, often an IC50 or EC50 that approximates it; bounds were set here for any values at or beyond the usual limits of such assays
Details: source organism: Vaccinia virus WR
Recorded pKd by entry
The scale used: pKd is minus the common logarithm of the concentration in molar units.

GET /values?readout=pKd&item= TEYDDHINL
5.92

// repeat for DELVDPINY and report
5.57

---

Molecular target: HLA-A*03:01
Assay: IEDB peptide-MHC binding, purified MHC/competitive/radioactivity; filed as Kd, often an IC50 or EC50 that approximates it; bounds were set here for any values at or beyond the usual limits of such assays
Conditions: source organism: Vaccinia virus WR
observation-type: Kd (nM)
Numeric answer only, unit nM assumed.

GET /values?readout=Kd&item= ATSLDVINY
625

---

Molecular target: HLA-B*40:01
Assay: IEDB peptide-MHC binding, purified MHC/competitive/radioactivity; filed as Kd, often an IC50 or EC50 that approximates it; bounds were set here for any values at or beyond the usual limits of such assays
Settings: source organism: Vaccinia virus WR
observation-type: Kd
Numeric answer plus unit only.

GET /values?readout=Kd&item= DELVDPINY
529 nM

---

Biological target: HLA-A*03:01
Assay: IEDB peptide-MHC binding, purified MHC/competitive/radioactivity; bounds were set here for any values at or beyond the usual limits of such assays
Details: source organism: Vaccinia virus WR
observation-type: pIC50
The scale used: pIC50 is minus the common logarithm of the concentration in molar units.

{"seq": "VTSSGAIYK", "pIC50": 8.00}
{"seq": "KLKIISNDYK", "pIC50": 8.35}
{"seq": "KTKNFTIDFK", "pIC50": 7.96}
{"seq": "KVMFVIRFK", "pIC50": 8.85}

# next sequence below
GET /values?readout=pIC50&item= IVFNLPVSK
8.66

---

Molecular target: HLA-B*35:01
Assay: IEDB peptide-MHC binding, purified MHC/competitive/radioactivity; bounds were set here for any values at or beyond the usual limits of such assays
Conditions: source organism: Vaccinia virus WR
Recorded IC50 by entry
Numeric answer only, unit nM assumed.

{"seq": "HPRHYATVM", "IC50 [nM]": 63}

# next sequence below
Kindly state the measured IC50 obtained for MPAYIRNTL with HLA-B*35:01.
19

---

Recorded Kd by entry
Target: HLA-A*68:01
Test: IEDB peptide-MHC binding, purified MHC/competitive/radioactivity; filed as Kd, often an IC50 or EC50 that approximates it; bounds were set here for any values at or beyond the usual limits of such assays
Settings: source organism: Vaccinia virus WR
Numeric answer only, unit µM assumed.

Answered cases to consult:
{"seq": "KVLHVTDTNK", "target-system": "HLA-A*68:01", "endpoint-unit": "µM", "measured-value": 3.02}
{"seq": "AVKDVTITKK", "target-system": "HLA-A*68:01", "endpoint-unit": "µM", "measured-value": 1.62}

GET /values?readout=Kd&item= GTIAGGVCYY
11.1

---

Target: HLA-B*44:02
Assay: IEDB peptide-MHC binding, purified MHC/competitive/radioactivity; filed as Kd, often an IC50 or EC50 that approximates it; bounds were set here for any values at or beyond the usual limits of such assays
Conditions: source organism: Vaccinia virus WR
observation-type: pKd
The scale used: pKd is minus the common logarithm of the concentration in molar units.

{"seq": "TEYDDHINL", "pKd": 6.04}

# next sequence below
GET /values?readout=pKd&item= DELVDPINY
4.84

---

Recorded Kd by entry
Target: HLA-A*26:01
Experiment: IEDB peptide-MHC binding, purified MHC/competitive/radioactivity; filed as Kd, often an IC50 or EC50 that approximates it; bounds were set here for any values at or beyond the usual limits of such assays
Settings: source organism: Vaccinia virus WR
Numeric answer only, unit µM assumed.

{"seq": "FGDSKEPVPY", "endpoint-unit": "µM", "Kd": 5.68}

GET /values?readout=Kd&item= QSITRSLIY
4.99

---

Target: HLA-A*02:01
Test: IEDB peptide-MHC binding, purified MHC/competitive/radioactivity; bounds were set here for any values at or beyond the usual limits of such assays
Details: source organism: Vaccinia virus WR
observation-type: pIC50
The scale used: pIC50 is minus the common logarithm of the concentration in molar units.

GET /values?readout=pIC50&item= FLVIAINAM
6.36

---

Biological target: HLA-B*07:02
Assay: IEDB peptide-MHC binding, purified MHC/competitive/radioactivity; bounds were set here for any values at or beyond the usual limits of such assays
Conditions: source organism: Vaccinia virus WR
Recorded pIC50 by entry
The scale used: pIC50 is minus the common logarithm of the concentration in molar units.

{"seq": "HPRHYATVM", "pIC50": 9.06}
{"seq": "MPAYIRNTL", "pIC50": 9.28}
{"seq": "KPKPAVRFAI", "pIC50": 9.74}

GET /values?readout=pIC50&item= RPMSLRSTII
9.37

---

Molecular target: HLA-B*51:01
Experiment: IEDB peptide-MHC binding, purified MHC/competitive/radioactivity; bounds were set here for any values at or beyond the usual limits of such assays
Conditions: source organism: Vaccinia virus WR
observation-type: IC50 (nM)
Numeric answer only, unit nM assumed.

GET /values?readout=IC50&item= MPAYIRNTL
461

FYI, the data here is from the Immune Epitope Database (IEDB).
